test: Single rising oral dose study in healthy postmenopausal volunteers; format: in vivo, human; details: female, human, plasma, po, human postmenopausal subjects; read-out: elimination half-life
assay metric: half-life

For the compound shown here, C[C@]12CC[C@@H]3c4ccc(O)cc4CC[C@H]3[C@@H]1[C@@H](O)[C@@H](O)[C@@H]2O , give the reported half-life.
> 15 h
